EXPERIMENTAL_PROTOCOL: yeast display, Sf9 membrane polyspecificity reagent, FACS + sequencing; frameworks hold sequencing errors

- SEQ_STRING: "QVQLVESGGGLVQAGASLRLSCAASGFIFAINTMGWNLQAPGKETELVAGINWRGSSKYYADSVKGRFTISRDNAKNTVYLQMNSLKPEDTAVYYCAARRFWGSDYDYWGLGTQVTVSS"
  polyreactivity (PSR sort gate): "high polyreactivity"
- SEQ_STRING: "QVQLVESGGGLVQAGGSLRLSCAASGFIFVLYAMGWYRQAPRKERELVAAISRGGSSTYYADSVKGRFTISRDNAKNTVYLQMNSLKPEATAVYYCAARIRNWPAMDYWGQGTQVTVSS"
  polyreactivity (PSR sort gate): "high polyreactivity"
- SEQ_STRING: "QVQLVESGGGLVQAGGSLRLSCAASGSTLVVNGMGWYRQAPGKERELVASISSDGSTNYADSVKGRFTISRDNAKNTVYLQMNSLKPEDTAVYYCAADEGTGQASLSSNLYDYWGQGTQVTVSS"
  polyreactivity (PSR sort gate): "low polyreactivity"
- SEQ_STRING: "QVHLVVSGGGLVQAGGSLRLSCAASGRLLYKYAMGWNRQAPGKERELVAAISGSGGRTYYADSVKGRFTISRDNAKNTVYLQMNSLKPEDTAVYYCAAVHPFRHVLYDYWGQGTQVTVSS"
  polyreactivity (PSR sort gate): "low polyreactivity"
- SEQ_STRING: "QGQLVDSGGGLVQAGGSLRLSCAASGSTFKNNAMGWYRQAPGKEREFVASISKRGGSTYYADSVKGRFTISRDNAKNTVYLQMNSMKPEDTAVYYCAKTYWSYGLSHGDYGEFDYWGQGTQVTVSS"
  polyreactivity (PSR sort gate): "high polyreactivity"
- SEQ_STRING: "QVQLVESGGGLVQAGGSLRLSCAASGRTFSKYTMGWYRQATGKERELVAAIDRSGGSTYYADSVKGRFTISRDNAKNTVYLQMNSLKPEDTAVYYCAAVYYLVPGNYWGHGTQVTVSS"
  polyreactivity (PSR sort gate): "high polyreactivity"
- SEQ_STRING: "QVQLVESGGGLVQAGGSLRLSCAASGNIFKHYAMGWYRQAPGKERELVAAITWSGGSTHYADSVKGRFTISRDNAKNTVYFQMNSLKPEDTAVSYCAARGWWPGTKWTRYDYWGQGTQVTVSS"
  polyreactivity (PSR sort gate): "high polyreactivity"
- SEQ_STRING: "HLQLVESGGGLVQAGGSLRLSCAPSGSTFKRNTKGWYRQAPGKEREMVASINRGGSTYYADSVKGRFTISSDNAKNTVYLQMNSLKPEDTAVYYCAKRVLNCYTGTQAPNKFGYWGQGTQVTVSS"
  polyreactivity (PSR sort gate): "low polyreactivity"
- SEQ_STRING: "QVQLVESGGGLVQAGGRLRLSCAASGSTFAIYGMGWYRQAPGKERELVAGITRGGSTNYADSVKGRFTISRDNAKNTVYLQMNSLKPEDTAVYYCNSPFGVRRFKTKGRSHYEYWGQGTQVTVSS"
  polyreactivity (PSR sort gate): "high polyreactivity"
- SEQ_STRING: "QVQLVESGAGLVQAGGRLRLSCAASGFTFYYNAMGWYRQAPGKEREFVAAISRSAGSTTYADSVKGRFTISRDNAKNTVYLQMNSLKPEDTAVYYCNARRSRGKSYDYWGQGTQVTVSS"
  polyreactivity (PSR sort gate): "high polyreactivity"
- SEQ_STRING: "QVQLVESGGGLVQAGGSLRLSCAASGRTFMRYAMGWYRQAPGKERELVAAISRGGGRTYYADSVKGRFTISRDNAKNTVYLQMNSLKPEDTAVYYCAADLSPEYDYWGQGTQVTVSS"
  polyreactivity (PSR sort gate): "high polyreactivity"
